tested on: PDC 899932-113-R3-J6 complex spheroid viability; test: Anticancer human tumor 899932-113-R3-J6-PDC patient-derived melanoma cell line growth inhibition [RAS]; settings: second compound 0.1 µM; first compound 0.1 µM; active = viability on the fitted dose curve at most 10% of control; inactive = the rest
A correct response names exactly one class from active, inactive

Would you mind telling me which call this test gave O=C(c1ccc(F)c(F)c1Nc1ccc(I)cc1F)N1CC(O)([C@@H]2CCCCN2)C1 + C=CC(=O)N1CCN(c2nc(OCC3CCCN3C)nc3c(F)c(-c4nc(N)cc(C)c4C(F)(F)F)c(Cl)cc23)C(C)C1 ?
active

Would you mind telling me which call this test gave CC(=O)OC12COC1CC(O)C1(C)C(=O)C(O)C3=C(C)C(OC(=O)C(O)C(NC(=O)OC(C)(C)C)c4ccccc4)CC(O)(C(OC(=O)c4ccccc4)C21)C3(C)C (stereo not given) + C#Cc1c(F)ccc2cc(O)cc(-c3ncc4c(N5CC6CCC(C5)N6)nc(OCC56CCCN5CC(F)C6)nc4c3F)c12 ?
inactive

Would you mind telling me which call this test gave C[C@@H](NC(=O)c1ncnc(N)c1Cl)c1ncc(C(=O)Nc2cc(C(F)(F)F)c(Cl)cn2)s1 + C=CC(=O)N1CCN(c2nc(OCC3CCCN3C)nc3c(F)c(-c4nc(N)cc(C)c4C(F)(F)F)c(Cl)cc23)C(C)C1 ?
inactive

Would you mind telling me which call this test gave CCC(CC)c1cc(NC2CCC(N)C2)n2nccc2n1 (stereo not given) + C=CC(=O)N1CCN(c2nc(OCC3CCCN3C)nc3c(F)c(-c4nc(N)cc(C)c4C(F)(F)F)c(Cl)cc23)C(C)C1 ?
inactive

Would you mind telling me which call this test gave CC(C)n1nc(-c2ccc3oc(N)nc3c2)c2c(N)ncnc21 + C=CC(=O)N1CCN(c2nc(OCC3CCCN3C)nc3c(F)c(-c4nc(N)cc(C)c4C(F)(F)F)c(Cl)cc23)C(C)C1 ?
inactive

====

tested on: PDC 899932-113-R3-J6 complex spheroid viability; experiment: Anticancer human tumor 899932-113-R3-J6-PDC cell line growth inhibition [RAS]; settings: second compound 3.16 µM; first compound 0.316 µM; hits give low values;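 also: spheroids exposed to agents for seven days before readout; 100% = DMSO vehicle control wells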
Endpoint Label: viability, T/C (%)
Your answer is read as %, so omit the unit and give the number.

For CCC(CC)c1cc(NC2CCC(N)C2)n2nccc2n1 (centres undefined) + C#Cc1c(F)ccc2cc(O)cc(-c3ncc4c(N5CC6CCC(C5)N6)nc(OCC56CCCN5CC(F)C6)nc4c3F)c12 , write its viability, T/C.
107

For C[C@@H](NC(=O)c1ncnc(N)c1Cl)c1ncc(C(=O)Nc2cc(C(F)(F)F)c(Cl)cn2)s1 + C#Cc1c(F)ccc2cc(O)cc(-c3ncc4c(N5CC6CCC(C5)N6)nc(OCC56CCCN5CC(F)C6)nc4c3F)c12 , write its viability, T/C.
155

For Cc1nc(N2CCC3(CC2)COC(C)C3N)c(CO)nc1Sc1ccnc(N)c1Cl (centres undefined) + C#Cc1c(F)ccc2cc(O)cc(-c3ncc4c(N5CC6CCC(C5)N6)nc(OCC56CCCN5CC(F)C6)nc4c3F)c12 , write its viability, T/C.
108

For CC1(O)CCCC1n1c(=O)c(C(F)F)cc2cnc(NC3CCN(S(C)(=O)=O)CC3)nc21 (centres undefined) + C#Cc1c(F)ccc2cc(O)cc(-c3ncc4c(N5CC6CCC(C5)N6)nc(OCC56CCCN5CC(F)C6)nc4c3F)c12 , write its viability, T/C.
69.8

The reported measurements were obtained from PubChem BioAssay AID2060895.
